- target-under-test: T1, Bfl-1, Q16548
- T1 chain: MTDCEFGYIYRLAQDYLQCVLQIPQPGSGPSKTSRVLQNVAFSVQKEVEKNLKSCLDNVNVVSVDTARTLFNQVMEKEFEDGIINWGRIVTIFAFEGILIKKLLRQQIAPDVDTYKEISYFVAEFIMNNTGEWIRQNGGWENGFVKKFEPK
- assay-comment: peptide SPOT array, c-Myc-tagged receptor at 1 uM or 100 nM, anti-c-Myc-Cy3
reported-endpoint: SPOT signal as a fraction of Bim BH3's signal on the same receptor and array

{"columns": ["binder", "recorded-measurement"],
 "data": [
  ["SFLSAHCASHLAWFGDSLTSLSQRLQ [TMEM214]", 0.09],
  ["LTETSLISGNDHRIGDITSCSVLWLN [FBXW5]", 0.04],
  ["KEFLALASSSLLKIGQETDKTTTRNR [NCKAP1]", 0.23],
  ["THFLDEEVKLDKKMGDHLTNLHRLGG [FTL]", 0.03],
  ["MSILTIASAVLEFVGDGIYNNTMGHV [TAP1]", 0.04]
]}

1: EAVTDGLKRALRSFGNALGNCILDKD [RAD52]
2: MSLFLRVVFSFTMFLDLFEEEYSTVS [USP40]
Please indicate which item has the smaller measured SPOT signal as a fraction of Bim BH3's signal on the same receptor and array: 1 versus 2 Mark your selection by writing its label.
2
(2: 0.04, 1: 0.06)

Source: paper PMC4072508
